# System: MX-1 (breast carcinoma)
# protocol.summary: Cytotoxicity/growth inhibition assay, MX-1
# Assay type: cell-based, human
# conditions.used: MX-1 cells, 3 days culture, CellTiter-Glo, 0.1-200 μM tested; read-out: IC50 (MX-1)
# Description: […] Log-phase cells were trypsinized, collected by centrifugation, and resuspended in a small volume of fresh medium, and the density of viable cells was determined following Trypan Blue staining. […] After incubation for 15 minutes at room temperature, and the plate was read with a luminometer.
IC50 strictly less than 10 µM = Satisfied. Otherwise Not satisfied.

Example results:
>  <molecule>
O=C(c1ccc(CS(=O)(=O)CCOP(=O)(N(CCCl)CCCl)N(CCCl)CCCl)cc1)N1CCN(Cc2ccccc2)CC1 [Compound 177A]

>  <measured.target>
MX-1 (breast carcinoma)

>  <class.label>
Satisfied

$$$$
>  <molecule>
CN(C)CC(=O)Nc1cc(CS(=O)(=O)CCOP(=O)(N(CCCl)CCCl)N(CCCl)CCCl)cc(CS(=O)(=O)CCOP(=O)(N(CCCl)CCCl)N(CCCl)CCCl)c1 [Compound 20B]

>  <measured.target>
MX-1 (breast carcinoma)

>  <class.label>
Satisfied

$$$$
>  <molecule>
O=C(CS(=O)(=O)CCOP(=O)(N(CCCl)CCCl)N(CCCl)CCCl)NC1CC1 [Compound 60A]

>  <measured.target>
MX-1 (breast carcinoma)

>  <class.label>
Not satisfied

$$$$
>  <molecule>
O=C(CS(=O)(=O)CCOP(=O)(N(CCCl)CCCl)N(CCCl)CCCl)Nc1ccccn1 [Compound 24A]

>  <measured.target>
MX-1 (breast carcinoma)

>  <class.label>
Not satisfied

$$$$
>  <molecule>
O=P(OCCS(=O)(=O)C1CCCCC1)(N(CCCl)CCCl)N(CCCl)CCCl [Compound 11A]

>  <measured.target>
MX-1 (breast carcinoma)

>  <class.label>
Not satisfied

$$$$

Q) is_below(IC50, 10 µM) for CN(CC(=O)O)C(=O)CS(=O)(=O)CCOP(=O)(N(CCCl)CCCl)N(CCCl)CCCl [Compound 34A] ?
A) Satisfied

Q) Dear colleague, could you confirm whether IC50 of O=C(c1ccc(CS(=O)(=O)CCOP(=O)(N(CCCl)CCCl)N(CCCl)CCCl)cc1)N1CCCC1 [Compound 156A] falls below 10 µM? Thanks.
A) Satisfied

Q) Field: below-cutoff. Rule: recorded IC50 strictly less than 10 µM. Subject: Cc1ccc(S(=O)(=O)CCOP(=O)(N(CCCl)CCCl)N(CCCl)CCCl)cc1 [Compound 107A]
A) Satisfied

Q) Consider the molecule NCC(=O)Nc1cccc(CS(=O)(=O)CCOP(=O)(N(CCCl)CCCl)N(CCCl)CCCl)c1 [Compound 143A] . Is its IC50 strictly less than 10 µM?
A) Not satisfied

Q) Lab note: confirm whether the reported IC50 for this molecule is below 10 µM, equality not counting. molecule: O=C(O)CCC(=O)Nc1cc(CS(=O)(=O)CCOP(=O)(N(CCCl)CCCl)N(CCCl)CCCl)cc(CS(=O)(=O)CCOP(=O)(N(CCCl)CCCl)N(CCCl)CCCl)c1 [Compound 18B]
A) Satisfied

Q) IC50 strictly < 10 µM for this molecule? CC(C)(C(N)C(=O)O)S(=O)(=O)CCOP(=O)(N(CCCl)CCCl)N(CCCl)CCCl (centres unmarked) [Compound 76A]
A) Not satisfied

---

# Tested on: MX-1 (breast carcinoma)
# protocol.summary: Cytotoxicity/growth inhibition assay, MX-1
# Assay type: cell-based, human
# conditions.used: MX-1 cells, 3 days culture, CellTiter-Glo, 0.1-200 μM tested; read-out: IC50 (MX-1)
Reported values of IC50 for individual entries
Please answer using a numeric value trailed by its unit.

>  <compound>
N#CCNC(=O)c1ccc(CS(=O)(=O)CCOP(=O)(N(CCCl)CCCl)N(CCCl)CCCl)cc1 [Compound 164A]

>  <IC50>
10.7 µM

$$$$
>  <compound>
N#Cc1ccc(S(=O)(=O)N[C@@H](CS(=O)(=O)CCOP(=O)(N(CCCl)CCCl)N(CCCl)CCCl)C(=O)N2CCOCC2)cc1 [Compound 100A]

>  <IC50>
16.2 µM

$$$$

Q) For MX-1 (breast carcinoma), give IC50 of the listed compound: O=C(Nc1cc(CS(=O)(=O)CCOP(=O)(N(CCCl)CCCl)N(CCCl)CCCl)cc(CS(=O)(=O)CCOP(=O)(N(CCCl)CCCl)N(CCCl)CCCl)c1)c1cccnc1 [Compound 22B]
A) 7 µM

---

# Tested on: MX-1 (breast carcinoma)
# protocol.summary: Cytotoxicity/growth inhibition assay, MX-1
# Format: cell-based, human
# conditions.used: MX-1 cells, 3 days culture, CellTiter-Glo, 0.1-200 μM tested; read-out: IC50 (MX-1)
measurement.name: IC50 (µM)
Give your result in µM as a bare value.

Below, each entry is followed by its recorded IC50 result.
>  <compound>
O=P(OCCS(=O)(=O)c1ccc(Cl)cc1)(N(CCCl)CCCl)N(CCCl)CCCl [Compound 108A]

>  <meas.value>
3.3

$$$$
>  <compound>
O=C(CS(=O)(=O)CCOP(=O)(N(CCCl)CCCl)N(CCCl)CCCl)Nc1ccc([N+](=O)[O-])cc1 [Compound 20A]

>  <meas.value>
4.3

$$$$
>  <compound>
O=P(OCCS(=O)(=O)CCS(=O)(=O)CCOP(=O)(N(CCCl)CCCl)N(CCCl)CCCl)(N(CCCl)CCCl)N(CCCl)CCCl [Compound 1B]

>  <meas.value>
4

$$$$
>  <compound>
CC(=O)NCCS(=O)(=O)CCOP(=O)(N(CCCl)CCCl)N(CCCl)CCCl [Compound 17A]

>  <meas.value>
6.3

$$$$
>  <compound>
O=C(c1ccco1)C1CCN(C(=O)c2ccc(CS(=O)(=O)CCOP(=O)(N(CCCl)CCCl)N(CCCl)CCCl)cc2)CC1 [Compound 171A]

>  <meas.value>
6.1

$$$$
>  <compound>
COc1ccc(S(=O)(=O)CCOP(=O)(N(CCCl)CCCl)N(CCCl)CCCl)cc1 [Compound 115A]

>  <meas.value>
5.3

$$$$
>  <compound>
N[C@@H](CCC(=O)Nc1cccc(CS(=O)(=O)CCOP(=O)(N(CCCl)CCCl)N(CCCl)CCCl)c1)C(=O)O [Compound 147A]

>  <meas.value>
12.2

$$$$
>  <compound>
CC(C)NC(=O)[C@H](CS(=O)(=O)CCOP(=O)(N(CCCl)CCCl)N(CCCl)CCCl)NS(=O)(=O)c1ccc(C#N)cc1 [Compound 101A]

>  <meas.value>
14.8

$$$$
>  <compound>
O=P(OCCS(=O)(=O)CCCCCCCCS(=O)(=O)CCOP(=O)(N(CCCl)CCCl)N(CCCl)CCCl)(N(CCCl)CCCl)N(CCCl)CCCl [Compound 7B]

>  <meas.value>
1.9

$$$$
>  <compound>
CCC(C)CS(=O)(=O)CCOP(=O)(N(CCCl)CCCl)N(CCCl)CCCl (centres unmarked) [Compound 8A]

>  <meas.value>
17.5

$$$$

Q) Annotate the compound O=C(CS(=O)(=O)CCOP(=O)(N(CCCl)CCCl)N(CCCl)CCCl)N1CCNCC1 [Compound 68A] with its measured IC50.
A) 36.7

Q) Identify IC50 associated with the compound NC(=O)C1CCN(C(=O)c2ccc(CS(=O)(=O)CCOP(=O)(N(CCCl)CCCl)N(CCCl)CCCl)cc2)CC1 [Compound 170A]
A) 31.4

---

# Tested on: MX-1 (breast carcinoma)
# protocol.summary: Cytotoxicity/growth inhibition assay, MX-1
# Type: cell-based, human
# conditions.used: MX-1 cells, 3 days culture, CellTiter-Glo, 0.1-200 μM tested; read-out: IC50 (MX-1)
# Experimental: […] Log-phase cells were trypsinized, collected by centrifugation, and resuspended in a small volume of fresh medium, and the density of viable cells was determined following Trypan Blue staining. […] After incubation for 15 minutes at room temperature, and the plate was read with a luminometer.
pIC50: −log10 of the molar value.
Assign class by pIC50: not lower than 5 means true; lower than 5 means false.

>  <molecule>
N[C@@H](CS(=O)(=O)CCOP(=O)(N(CCCl)CCCl)N(CCCl)CCCl)C(=O)NCCC(=O)O [Compound 94A]

>  <class.label>
false

$$$$

Q) Please indicate if the recorded pIC50 for CS(=O)(=O)N[C@@H](CS(=O)(=O)CCOP(=O)(N(CCCl)CCCl)N(CCCl)CCCl)C(=O)NCc1ccccc1 [Compound 95A] meets or exceeds 5.
A) false

Q) I'd appreciate it if you could say whether O=C(c1ccc(CS(=O)(=O)CCOP(=O)(N(CCCl)CCCl)N(CCCl)CCCl)cc1)N1CCCCC1 [Compound 159A] has pIC50 at least equal to 5.
A) true

---

# System: MX-1 (breast carcinoma)
# protocol.summary: Cytotoxicity/growth inhibition assay, MX-1
# Type: cell-based, human
# conditions.used: MX-1 cells, 3 days culture, CellTiter-Glo, 0.1-200 μM tested; read-out: IC50 (MX-1)
We begin with a simple list: items and their reported log10 IC50.
Each number you see is log10 of IC50, and the unit inside the log is µM.

Previously resolved entries follow.
>  <compound>
CS(=O)(=O)N[C@@H](CS(=O)(=O)CCOP(=O)(N(CCCl)CCCl)N(CCCl)CCCl)C(=O)N1CCOCC1 [Compound 96A]

>  <log10 IC50>
1.48

$$$$
>  <compound>
N#Cc1ccc(CS(=O)(=O)CCOP(=O)(N(CCCl)CCCl)N(CCCl)CCCl)cc1 [Compound 153A]

>  <log10 IC50>
0.48

$$$$
>  <compound>
CCCCCCCCS(=O)(=O)CCOP(=O)(N(CCCl)CCCl)N(CCCl)CCCl [Compound 12A]

>  <log10 IC50>
1.14

$$$$
>  <compound>
CC(C)(C)OC(=O)CCNC(=O)CS(=O)(=O)CCOP(=O)(N(CCCl)CCCl)N(CCCl)CCCl [Compound 37A]

>  <log10 IC50>
0.90

$$$$
>  <compound>
O=P(OCCS(=O)(=O)c1ccc(C(F)(F)F)cc1)(N(CCCl)CCCl)N(CCCl)CCCl [Compound 109A]

>  <log10 IC50>
0.04

$$$$

Q) Write down measured log10 IC50 (MX-1 (breast carcinoma)) for this compound. COC(=O)[C@H](CS(=O)(=O)CCOP(=O)(N(CCCl)CCCl)N(CCCl)CCCl)NS(=O)(=O)c1ccccc1 [Compound 80A]
A) 1.43

Q) Enter log10 IC50 (test system MX-1 (breast carcinoma)) for Nc1cc(CS(=O)(=O)CCOP(=O)(N(CCCl)CCCl)N(CCCl)CCCl)cc(CS(=O)(=O)CCOP(=O)(N(CCCl)CCCl)N(CCCl)CCCl)c1 [Compound 17B]
A) 0.79
